# System: TH2 cells
# EXPERIMENT_NOTES: Anti-CD3/anti-CD28 stimulated lymph node cells (day 7 post-Nb), IL-5/IL-13 ELISA
# Assay type: cell-based, mouse
# CONDITION_DESCRIPTION: LN cells day 7 post-Nb, anti-CD3 and anti-CD28, 48 hours
MEASURED_ENDPOINT: capacity to inhibit IL-13 production compared to native Nmb

SUBSTANCE: H2N-NLWATGH-amide (H-NLWATGH-NH2) [AB]
EXPERIMENTAL_VALUE: enhanced capacity

SUBSTANCE: H2N-LWATGHF-amide (H-LWATGHF-NH2) [AC]
EXPERIMENTAL_VALUE: enhanced capacity

SUBSTANCE: H2N-NLWATGHF-amide (H-NLWATGHF-NH2) [Y]
EXPERIMENTAL_VALUE: enhanced capacity
